Values were extracted from patent US9023806B2.

# Tested on: tubulin
# experiment_notes: Peptide-on-membrane chip blot overlay with purified tubulin
# Type: binding, mice
# run_conditions: purified tubulin overnight at 4° C., anti-βIII tubulin antibody
readout_type: tubulin binding site detected on peptide chip

# get_value(readout='tubulin binding site detected on peptide chip', item= QIKSLNNKFASFIDKVRFLEQ (listed as Mus musculus) [Ker-TBS2] )
tubulin binding sites

Endpoint output: tubulin binding site detected on peptide chip of MERRRITSARRSYASETVVRGLGP (listed as Mus musculus) [GFAP-TBS1] . Value?
tubulin binding sites
